system: AAK1; details: concentration: 1 μM, replicates: in singlicate; n = 1;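 also: KINOMEscan kinase panel screen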
Tick Fulfilled if %Inh is 10% or greater. Tick Not fulfilled if %Inh is less than 10%.

Some solved entries appear below for comparison.
molecule=Cc1cccc(-c2cc(Nc3ccncc3)c3ccccc3n2)n1 classification=Fulfilled
molecule=Cc1c(Cn2ccn3c(=O)cc(N4CCOCC4)nc23)cccc1C(F)(F)F classification=Fulfilled
molecule=Cl.O=C(Nc1cccc(-c2nn3ncccc3c2-c2ccnc(Nc3cccnc3)n2)c1)c1c(F)cccc1F classification="Not fulfilled"

Confirm if %Inh reported for the molecule Cc1ccc(NC(=O)Nc2cc(C(C)(C)C)nn2-c2ccccc2)cc1 is 10% or above.
Not fulfilled

And the next one, Cc1cccc(-c2nc(Nc3ccc4[nH]ncc4c3)c3ccccc3n2)n1 ?
Not fulfilled

Next up: CCn1c(-c2ccccn2)nc2cnccc21
Not fulfilled

How about this molecule: O=C(Nc1ccccc1)Nc1cccc(Oc2ccc3nccn3n2)c1
Not fulfilled

Quick one: Fc1cc(Cl)ccc1Nc1ccnc2cc(I)ccc12
Fulfilled

Here is the next molecule: O=c1cc(N2CCOCC2)nc2n(Cc3cccc(Cl)c3Cl)ccn12
Not fulfilled

And then COc1ccc(C2=C(Nc3cccc(C(=O)O)c3)C(=O)NC2=O)cc1 , what is it?
Not fulfilled

Reference for the values: paper PMC5540273
